These data points were gathered from patent US20110046223A1.

System: T265P21 cells
Assay: cell growth, direct counting of cells, FTS dose-response
Format: cell-based
Conditions: Homo sapiens, 72 h, grown three days, FTS 12.5-100 μM, means±SD, n=4, read-out: estimated IC50, decrease in cell number
measured attribute: IC50 (µM)
Return type: number; implicit unit µM.

// recorded IC50 for CC(C)=CCC/C(C)=C/CC/C(C)=C/CSc1ccccc1C(=O)O [FTS, S-farnesylthiosalicylic acid] : 35
